# Test system: SF-268 CNS
# Protocol Text: NCI tumour cell line growth inhibition, 48 h
Recorded TGI for the following compounds
Readout Kind: TGI

[[record]]
compound = "O=c1[nH]cnc2c1CCCN2"
measurement_target = "SF-268 CNS"
result = "> 100 µM"

[[record]]
compound = "c1ccc(C[N+]23CN4CN(CN(C4)C2)C3)cc1"
measurement_target = "SF-268 CNS"
result = "85.8 µM"

[[record]]
compound = "NC1=NCCN1CC(=O)O"
measurement_target = "SF-268 CNS"
result = "> 10000 µM"

[[record]]
compound = "CCOC(=O)c1ccc(Nc2nc3ccccc3nc2C(=O)OCC)cc1"
measurement_target = "SF-268 CNS"
result = "> 100 µM"

[[record]]
compound = "CCCCCCCCCCCCCCCCOP(=O)(O)OP(=O)(O)OCC1OC(n2ccc(N)nc2=O)C(O)C1O (centres undefined)"
measurement_target = "SF-268 CNS"
result = "> 100 µM"

[[record]]
compound = "CC(=O)[C@@]1(O)[C@H](C)C[C@H]2[C@@H]3C=C(C)C4=Cc5c(cnn5-c5ccccc5)C[C@]4(C)[C@H]3[C@@H](O)C[C@@]21C"
measurement_target = "SF-268 CNS"
result = "16.6 µM"

[[record]]
compound = "CCOC(=O)[C@@H](C)C[C@H](Cc1ccccc1)NC(=O)c1csc([C@@H](C[C@H](C(C)C)N(C)C(=O)[C@H](CC)NC(=O)[C@H]2CCCCN2C)OC(C)=O)n1"
measurement_target = "SF-268 CNS"
result = "> 16.7 µM"

[[record]]
compound = "CSCCOC(=O)C(=[N+]=[N-])c1ccc([N+](=O)[O-])cc1"
measurement_target = "SF-268 CNS"
result = "> 100 µM"

[[record]]
compound = "Cn1/c(=N\\N=C(\\CNCCO)[C@@H](O)[C@@H]2OC(c3ccccc3)OC[C@H]2O)sc2ccccc21 (some centres undefined)"
measurement_target = "SF-268 CNS"
result = "30.5 µM"


Every entry's value here was drawn from PubChem BioAssay (NCI).
